# Tested on: UO-31 renal
# assay-protocol: NCI-60 one-dose screen, 48 h (100 = growth as untreated, 0 = no growth, -100 = all killed)
# measurement-context: 10 µM unless noted
Compounds without any hit were thinned out: in the full panel of roughly 83,000, 20% have a hit.
reported-endpoint: growth (%)

molecule | assayed-target | reported-endpoint | quantitative-readout
Nc1nn2c(-c3cc4ccccc4oc3=O)ccnc2c1N=Nc1ccccc1 | UO-31 renal | growth | 63.2
COc1cc(C2CC(c3ccc(Cl)cc3)=Nc3c(N)nc(N)nc3N2)ccc1Oc1nc(Nc2ccc(F)cc2)nc(N(C)C)n1 (centres undefined) | UO-31 renal | growth | 34.6
COc1ccc(NC(=O)CSc2nnc(-c3ccc(-c4nc5ccccc5[nH]4)cc3)o2)cc1 | UO-31 renal | growth | 97.7
Cc1[nH]nc2ccc3nc(-c4cnn(CCO)c4)c4c(c3c12)CCCC4 | UO-31 renal | growth | 21.5
Cn1cc(-c2cc(N)n3nc(-c4c[nH]c5ccc(Cl)cc45)cc3n2)c2cccnc21 | UO-31 renal | growth | -77.5
COc1ccc(C2=Nc3c(N)nc(N)nc3NC(c3ccc(Oc4nc(Nc5ccc(F)cc5)nc(N(C)C)n4)c(OC)c3)C2)cc1 (centres undefined) | UO-31 renal | growth | 52.5
Cc1cnc2ccc(Oc3ccccc3-c3ccccc3)nn12 | UO-31 renal | growth | 90.1
COc1c(B(O)O)cc(F)cc1-c1nc2ccc3[nH]ncc3c2c2c1COCC2 | UO-31 renal | growth | 55
Cc1ccc(C(=O)Nc2cc(-n3cnc(F)c3)cc(C(F)(F)F)c2)cc1C#Cc1cnc2cccnn12 | UO-31 renal | growth | 39.9
O=C(CSc1nnc(-c2ccc(-c3nc4ccccc4[nH]3)cc2)o1)Nc1ccccc1 | UO-31 renal | growth | 104
CNS(=O)(=O)N1CCc2c(Br)c3c(c(OC)c2C1CCc1ccccc1)OCO3 (centres undefined) | UO-31 renal | growth | -20.1
Oc1ccc(Cl)c(Nc2ncnc3c2cnn3CC(Cl)c2ccc(Br)cc2)c1 (centres undefined) | UO-31 renal | growth | 21.3
O=C(CSc1nc2ccccc2c(=O)[nH]1)Nc1ccccc1C(=O)O | UO-31 renal | growth | 71.8
Cc1ccc(C(C(=O)NC2CCCCC2)N(Cc2ccccc2Cl)C(=O)c2ccc(CN3CCOCC3)o2)o1 (centres undefined) | UO-31 renal | growth | 71.1
COc1ccc(N=Nc2c(N)nn3c(N)c(C#N)c(-c4ccc(F)cc4)nc23)cc1 | UO-31 renal | growth | 50.6
CCN1C(=O)N(CC)C2NNC(Sc3c(C(=O)O)c4ccccc4n(CCC(C)C)c3=O)=NC21 (centres undefined) | UO-31 renal | growth | 28.1
O=C(NC(=S)N1CCN(c2ncnc3c2cnn3-c2ccccc2)CC1)c1ccc(F)cc1 | UO-31 renal | growth | 74.4
O=C(Nc1ccc(S(=O)(=O)N2CCCCC2)cc1)C(Cl)Cl | UO-31 renal | growth | 97
COC(=O)c1c(C(=O)OC)c2c3ccccc3c3ccccc3n2c1C(=O)C(C)(C)C | UO-31 renal | growth | 75.4

----------
# Test system: SW-620 colon
# assay-protocol: NCI-60 one-dose screen, 48 h (100 = growth as untreated, 0 = no growth, -100 = all killed)
# measurement-context: 10 µM unless noted
Compounds without any hit were thinned out: in the full panel of roughly 83,000, 20% have a hit.
Assign 1 to entries whose growth meets or exceeds 20%; assign 0 to the rest.

compound | class
Cc1ccc(S(=O)(=O)N(CCn2ccnc2[N+](=O)[O-])CCn2ccnc2[N+](=O)[O-])cc1 | 1
CC1CCc2c(sc3nc(SCC(=O)c4cccc([N+](=O)[O-])c4)n(-c4ccccc4)c(=O)c23)C1 (configuration not stated) | 1
O=C(c1ccc(O)cc1)C1[C@H](c2ccccc2Br)[C@@H](c2ccccc2)NC12C(=O)Nc1ccccc12 (some centres not stated) | 1
CCOC(=O)c1ccc(NC(=S)NC(=O)c2ccc(NC(=O)C(C)C)cc2OC)cc1 | 1
COc1ccc(C(=O)c2cc(C(C)=O)c3c(C)cc(C)cn23)cc1 | 1
COc1ccc(C2=NN(C(=O)[C@H]3[C@@H](c4ccco4)c4sc(=O)[nH]c4S[C@@H]3C)C(c3ccc4ccccc4c3)C2)cc1 (some centres not stated) | 1
N#Cc1ccc(C(=O)NNC(=O)CSc2nc3sc4c(c3c(=O)n2-c2ccc(Cl)cc2)CCCC4)cc1 | 1
S=C(Nc1ccc(OCc2nc3ccc(Cl)cc3[nH]2)cc1)NC1CCCCC1 | 0
O=C1Nc2cc(-c3ccc(NS(=O)(=O)c4ccc(F)c(Cl)c4)cc3)ccc2/C1=C/c1ccc[nH]1 | 1
CCOc1ccccc1[C@H]1C(C(=O)c2ccc(Cl)cc2)C2(N[C@@H]1c1ccccc1)C(=O)Nc1ccccc12 (some centres not stated) | 1
COc1cc(/C=C/C(=O)c2cnn(-c3cc(=O)[nH]c4ccc(C)cc34)c2C)cc(OC)c1OC | 0
Fc1ccc(N2CC(Cn3c(C(F)(F)F)cc4c(Cl)ncnc43)C2)c(F)c1 | 0
CC(C)C[C@H](NC(=O)[C@@H]1CCCCCCCCCCC(=O)N[C@@H](CC(=O)N2CCC[C@@H]2C2CCCC2)C(=O)N1)B(O)O | 0
COC(=O)c1cc(C(=O)C(Br)Br)n2c1ccc1c3ccccc3ccc12 | 1
COc1ccc2[nH]cc(-c3cc(N)n4nc(-c5c[nH]c6ccccc56)cc4n3)c2c1 | 0
C#CCN(C)CCCOc1ccc(N(C)C(=O)c2cc(C(C)C)c(O)cc2O)cc1Cl | 0
S=C(NCCc1ccccc1)Nc1ccc(OCc2nc3ccc(Cl)cc3[nH]2)cc1 | 1
Nc1nnc(CS(=O)(=O)c2ccccc2)s1 | 1
N#Cc1ccc(C(=O)CSc2nc3c(c(Nc4ccc(S(N)(=O)=O)cc4)n2)CCC3)cc1 | 1
COc1cc(/C=C/C(=O)c2cnn(-c3cc(=O)[nH]c4ccc(Br)cc34)c2C)cc(OC)c1OC | 0
N#CCc1nnc(NC(=O)c2ccc(-n3c(=O)[nH]c4ccccc4c3=O)cc2)s1 | 1
CCOC(=O)/C(F)=C/C1CC1CCc1ccc(OCC)cc1 (configuration not stated) | 1
O=C(NN1C(=O)/C(=C/C=C/c2ccc([N+](=O)[O-])o2)SC1=S)c1ccc(O)cc1 | 0
Cc1ccc2c(c1)/C(=C/C(=O)c1cc3ccccc3oc1=O)C(=O)N2 | 0
Cc1ccc(C(=O)Nc2cc(-n3ccnc3)cc(C(F)(F)F)c2)cc1-n1cc(-c2cnc3cccnn23)nn1 | 1
CN(C)c1nc(NCCNS(=O)(=O)c2ccc(C(=O)/C=C/c3ccc(C(F)(F)F)cc3)cc2)nc(N2CCOCC2)n1 | 0
CC1=C(C)C(=O)C(N2CCSCC2)=CC1=O | 1
C=CCSc1nnc(-c2c(C)nc3sccn23)o1 | 1
COc1ccc(CCC2NCCc3c(Br)c4c(c(OC)c32)OCO4)cc1 (configuration not stated) | 0
Nc1ccc(-c2ccc3ncnc(N4CCc5cc(F)c(Cl)cc54)c3c2)cn1 | 1
Cc1ccc2nc(NC(=O)Nc3cccc(Cl)c3)sc2c1 | 1
O=C(Cc1c(-c2ccccc2[N+](=O)[O-])n(-c2ncnc3c2c(-c2ccccc2)c(-c2ccccc2)n3Cc2ccccc2)[nH]c1=O)c1ccc(Cl)c(Cl)c1 | 1
O=C1Nc2cc(-c3ccc(NS(=O)(=O)c4ccc([N+](=O)[O-])cc4)cc3)ccc2/C1=C/c1ccc[nH]1 | 0
c1n[nH]cc1-c1nc2ccc3[nH]ncc3c2c2c1CC1(CC2)COC1 | 0
COc1ccc(NC(=O)N/N=C/c2c[nH]c3ccccc23)cc1 | 1
CC(C)(C)C(=O)C1CC(C#N)=C2C=Cc3c(ccc4ccccc34)N21 (configuration not stated) | 1
CC(C)(C)C(=O)c1c2c(c3ccc4c5ccccc5ccc4n13)C(=O)c1ccccc1C2=O | 1

Where do these numbers come from? They come from PubChem BioAssay (NCI).
